Test system: P. vulgatus WT
measurement-protocol: growth AUC normalised to DMSO control (median) (fraction of control); higher = less growth inhibition, active = hit call of the paper
recorded-conditions: 20 µM
Where a name gives a salt, the structure may show the parent alone.
Is growth AUC normalised to DMSO control at least 1? Then satisfied. If not, not satisfied.

compound	group
CN[C@@H]1C[C@@H](c2ccc(Cl)c(Cl)c2)c2ccccc21 [Indatraline hydrochloride]	satisfied
CC(=O)NC1CCSC1=O (stereo not drawn)	satisfied
NCC(O)c1ccc(O)cc1 (stereo not drawn) [Octopamine hydrochloride]	satisfied
Oc1cc(Cl)ccc1Oc1ccc(Cl)cc1Cl	not satisfied
C[C@]12CC[C@H](O)C[C@H]1CC[C@@H]1[C@@H]2C[C@@H](O)[C@]2(C)[C@@H](C3=CC(=O)OC3)CC[C@]12O	satisfied

As a next step, examine the compound that follows.
Confirm if growth AUC normalised to DMSO control reported for the compound CCC1(c2ccc(N)cc2)CCC(=O)NC1=O (stereo not drawn) [Glutethimide, para-amino] is 1 or above.
satisfied

----------
Test system: Yersinia pseudotuberculosis
measurement-protocol: growth AUC normalised to DMSO control (fraction of control); higher = less growth inhibition, active = hit call of the paper
recorded-conditions: 20 µM
Counter-ions that a name gives are not always drawn.
Is growth AUC normalised to DMSO control at least 1? Then Criterion met. If not, Criterion not met.

Worked examples follow.
compound	study-target	group
C[C@H](N)[C@H](O)c1ccc(O)c(O)c1 [Levonordefrin]	Yersinia pseudotuberculosis	Criterion met
CCn1cc(C(=O)O)c(=O)c2cc3c(cc21)OCO3 [Oxolinic acid]	Yersinia pseudotuberculosis	Criterion not met
CNC(=O)Oc1ccc2c(c1)[C@]1(C)CCN(C)[C@@H]1N2C [Eserine hemisulfate salt]	Yersinia pseudotuberculosis	Criterion not met
Clc1ccc(C(OCCN2CCCCC2)c2ccccc2)cc1 (centres undefined) [Cloperastine hydrochloride]	Yersinia pseudotuberculosis	Criterion met

As a next step, examine the compound that follows.
Confirm if growth AUC normalised to DMSO control reported for the compound COc1ccc(C(CN(C)C)C2(O)CCCCC2)cc1 (centres undefined) [Venlafaxine] is 1 or above.
Criterion met

----------
Tested on: Haemophilus parainfluenzae
measurement-protocol: growth AUC normalised to DMSO control (fraction of control); higher = less growth inhibition, active = hit call of the paper
recorded-conditions: 20 µM
Counter-ions that a name gives are not always drawn.
Give one outcome, nothing more. List: active, inactive

compound	study-target	group
CCC1(C)CC(=O)NC(=O)C1 [Bemegride]	Haemophilus parainfluenzae	inactive

Assay result, entry C[n+]1ccccc1/C=N/O [Pralidoxime chloride] — outcome?
inactive

Assay result, entry CN[C@@H]1[C@H](O[C@H]2[C@H](O[C@H]3[C@H](O)[C@@H](O)[C@H](N=C(N)N)[C@@H](O)[C@@H]3N=C(N)N)O[C@@H](C)[C@]2(O)C=O)O[C@@H](CO)[C@H](O)[C@H]1O [Streptomycin sulfate] — outcome?
active

Assay result, entry CC(CNC1CCCCC1)OC(=O)c1ccccc1 (configuration not stated) [Hexylcaine hydrochloride] — outcome?
inactive

Assay result, entry CCCCC(C)(O)C/C=C/[C@H]1[C@H](O)CC(=O)[C@@H]1CCCCCCC(=O)OC (mixture of isomers) [Misoprostol] — outcome?
inactive

Assay result, entry c1ccc(CN(CC2=NCCN2)c2ccccc2)cc1 [Antazoline hydrochloride] — outcome?
inactive

----------
Consider the following compounds and their measured growth AUC normalised to DMSO control readings.
System: S. enterica typhimurium WT
measurement-protocol: growth AUC normalised to DMSO control (median) (fraction of control); higher = less growth inhibition, active = hit call of the paper
recorded-conditions: 20 µM
Counter-ions that a name gives are not always drawn.
// no unit string in output, number only

Below, 5 compounds whose answers are already recorded.
compound	study-target	growth AUC normalised to DMSO control
C[C@]12C=CC(=O)C=C1CC[C@@H]1[C@@H]2CC[C@@]2(C)[C@H]1CC[C@]2(C)O	S. enterica typhimurium WT	1.01
CC(C)[N+](C)(CCC(C(N)=O)(c1ccccc1)c1ccccc1)C(C)C [Isopropamide iodide]	S. enterica typhimurium WT	1
CC[C@@H](C(N)=O)N1CCCC1=O	S. enterica typhimurium WT	1.01
Clc1ccc(C(OCCN2CCCCC2)c2ccccc2)cc1 (stereo not drawn) [Cloperastine hydrochloride]	S. enterica typhimurium WT	1
COc1ccc(CN2CCNCC2)c(OC)c1OC [Trimetazidine dihydrochloride]	S. enterica typhimurium WT	0.997

Now let's try a different one.
// Input: CC(=O)[C@H]1CC[C@H]2[C@@H]3CC[C@H]4C[C@H](O)CC[C@]4(C)[C@H]3C(=O)C[C@]12C . Output its growth AUC normalised to DMSO control only.
1
